Each entry below carries its reported ED50.
# Tested on: platelet aggregation induced by thrombin
# EXPERIMENT: Platelet aggregation inhibitory activity in vivo (Born aggregometer), thrombin-induced
# Parameters: species or system New Zealand rabbits
# SETUP_CONDITIONS: Oryctolagus cuniculus, Platelet, ip, dose for 50% inhibition of thrombin-induced aggregation curve; rabbits, intraperitoneal, blood 2, 4 and 6 hours after injection; read-out: platelet antiaggregant activity (AAP), DI50, Thrombin
// units = mg/kg; emit number, no label

Solved cases below.
- MOLECULE: "CCOc1ccc(C(=O)N(CCCC(C)C)Cc2cccnc2)cc1C(=O)N(CCCC(C)C)Cc1cccnc1 [Example 46]"
  DISPLAY_UNIT: "mg/kg"
  ED50: 24.7
- MOLECULE: "CC(C)(C)COc1ccc(C(=O)NCc2cccnc2)cc1C(=O)NCc1cccnc1 [Example 34]"
  DISPLAY_UNIT: "mg/kg"
  ED50: 27.3

Moving on to another molecule below.
q: So what's the measured ED50 for this one? C=CCOc1c(Cl)cc(C(=O)NCc2ccncc2)cc1C(=O)NCc1ccncc1 [Example 67]
a: 34.2

====

Each entry below carries its reported LD50 at 168 h.
# EXPERIMENT: Acute toxicity, intraperitoneal
# SETUP_CONDITIONS: mouse, in vivo, ip, male Swiss mice, intraperitoneal, 7 days observation; preliminary, by graphic interpolation; read-out: acute toxicity (LD50 / DL50)
Number plus unit, in that order.

Solved cases below.
- MOLECULE: "CCCCN(Cc1cccnc1)C(=O)c1ccc(OC)c(C(=O)N(CCCC)Cc2cccnc2)c1 [Example 42]"
  READOUT_LABEL: "LD50 at 168 h"
  REPORTED: "623 mg/kg"
- MOLECULE: "CCOc1ccc(C(=O)N(Cc2cccnc2)CC(C)C)cc1C(=O)N(Cc1cccnc1)CC(C)C [Example 44]"
  READOUT_LABEL: "LD50 at 168 h"
  REPORTED: "465 mg/kg"
- MOLECULE: "CC(C)(C)COc1ccc(C(=O)NCc2cccnc2)cc1C(=O)NCc1cccnc1 [Example 34]"
  READOUT_LABEL: "LD50 at 168 h"
  REPORTED: "351 mg/kg"

Moving on to another molecule below.
q: So what's the measured LD50 at 168 h for this one? C=CCCOc1ccc(C(=O)NCc2cccnc2)cc1C(=O)NCc1cccnc1 [Example 8]
a: 362 mg/kg

====

# Tested on: platelet aggregation induced by thrombin
# EXPERIMENT: Platelet aggregation inhibitory activity in vivo (Born aggregometer), thrombin-induced
# Set-up: species or system New Zealand rabbits
# SETUP_CONDITIONS: Oryctolagus cuniculus, Platelet, ip, dose for 50% inhibition of thrombin-induced aggregation curve; rabbits, intraperitoneal, blood 2, 4 and 6 hours after injection; read-out: platelet antiaggregant activity (AAP), DI50, Thrombin
READOUT_LABEL: ED50
Number plus unit, in that order.

- MOLECULE: "CCC(CC)Oc1c(Cl)cc(C(=O)NCc2cccnc2)cc1C(=O)NCc1cccnc1 [Example 30]"
  ED50: "29.5 mg/kg"
- MOLECULE: "COc1cc(C(=O)NCc2cccnc2)cc(C(=O)NCc2cccnc2)c1O [Example 33]"
  ED50: "38.9 mg/kg"
- MOLECULE: "CCOc1ccc(C(=O)N(Cc2cccnc2)CC(C)C)cc1C(=O)N(Cc1cccnc1)CC(C)C [Example 44]"
  ED50: "20.9 mg/kg"
- MOLECULE: "CC(C)=COc1ccc(C(=O)NCc2cccnc2)cc1C(=O)NCc1cccnc1 [Example 55]"
  ED50: "20.5 mg/kg"
- MOLECULE: "CC(C)COc1ccc(C(=O)NCc2cccnc2)cc1C(=O)NCc1cccnc1 [Example 15]"
  ED50: "33 mg/kg"
- MOLECULE: "C=C(C)COc1ccc(C(=O)N(Cc2cccnc2)C(C)C)cc1C(=O)N(Cc1cccnc1)C(C)C [Example 56]"
  ED50: "21.4 mg/kg"
- MOLECULE: "CC=COc1c(Cl)cc(C(=O)N(CCC(C)C)Cc2cccnc2)cc1C(=O)N(CCC(C)C)Cc1cccnc1 [Example 49]"
  ED50: "30.2 mg/kg"
- MOLECULE: "O=C(NCc1cccnc1)c1cc(Cl)c(O)c(C(=O)NCc2cccnc2)c1 [Example 32]"
  ED50: "33.6 mg/kg"
- MOLECULE: "CCCCCCCCOc1ccc(C(=O)NCc2cccnc2)cc1C(=O)NCc1cccnc1 [Example 6]"
  ED50: "19.4 mg/kg"
- MOLECULE: "COc1ccc(C(=O)N(Cc2cccnc2)C(C)C)cc1C(=O)N(Cc1cccnc1)C(C)C [Example 43]"
  ED50: "20.6 mg/kg"

q: So what's the measured ED50 for this one? C=CCOc1ccc(C(=O)NCc2cccnc2)cc1C(=O)NCc1cccnc1 [Example 7]
a: 19.2 mg/kg

q: Thanks! And CCCCCCCOc1ccc(C(=O)NCc2cccnc2)cc1C(=O)NCc1cccnc1 [Example 5] ?
a: 18.1 mg/kg
